The reported numbers originate from the supplement of paper PMC12042874.

Assay: amyloid nucleation score (Sup35N fusion, yeast selection) (log enrichment); library NNK1; higher = more nucleation; inactive = no reads after selection;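 also: zero at mode of non-aggregating sequences after 7 days selection at 30°C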
Labels assigned by amyloid nucleation score range: bottom bin: < -0.02; middle bin: ≥ -0.02 and < 0.7; top bin: ≥ 0.7

Qu. Kindly state the category for this sequence: TMSRQHKTGPNGSRAL
Ans. bottom bin

Qu. Hey, which category is RNKMMWLIICQGPPYRAWSP in, do you know?
Ans. top bin

Qu. # bin label for STCLGGERSYRYVMWLVLVV
Ans. middle bin

Qu. Quick check: band for GNIFWRMLWFVGYEKGSLLF
Ans. bottom bin

Qu. Exercise: read the entry LRNRMGNDIISILITIPKIV and state which class it falls under.
Ans. middle bin

Qu. Please indicate the class for TQSGVIQDAACPAMGMSNVL based on its amyloid nucleation score.
Ans. middle bin

Qu. Categorize the following entry: FWELECADIAVKSKGGCQGC
Ans. bottom bin

Qu. The entry to classify is IHRFKFGG ; which class holds it?
Ans. top bin
